Values compiled from patent US6864253B2.

Reported % Inh @ 10 μM (rabbit) values for a set of compounds
system_tested: PDEV (Oryctolagus cuniculus, UniProt G1SX67)
test_name: Cyclic nucleotide phosphodiesterase (PDE) assay, inhibition of PDEV isolated from rabbit tissue
Format: biochemical
setup_conditions: 10 μM test compound; rabbit PDEV
endpoint_name: % Inh @ 10 μM (rabbit) (%)

compound	endpoint_name	reported_value
CC(=O)Nc1cccc(-c2ccc(C(=O)N3CCc4c([nH]c5ccccc45)C3c3ccc4c(c3)OCO4)o2)c1 (stereo not shown)	% Inh @ 10 μM (rabbit)	70
CC(C)(C)c1cc(C(=O)N2CCc3c([nH]c4ccccc34)C2c2ccc(Cl)c(C(F)(F)F)c2)n(Cc2ccccc2)n1 (stereo not shown)	% Inh @ 10 μM (rabbit)	13
COc1ccc(-c2cnc(N3CCc4c([nH]c5ccccc45)C3c3ccc4c(c3)OCO4)nc2)cc1 (stereo not shown)	% Inh @ 10 μM (rabbit)	80
O=C(O)C1Cc2c([nH]c3ccccc23)C(c2ccc3c(c2)OCO3)N1C(=O)c1ccc(-c2cccc(C(F)(F)F)c2)o1 (stereo not shown)	% Inh @ 10 μM (rabbit)	46
